Test: small-molecule microarray binders of probe aDKK1, primary screen, biochemical, biotinylated probe, 635/667 nm fluorescence (AID 1099);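 note: score merges 667nm spot fluorescence with signal to noise across triplicate slides; reference of the scale not given here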
Details: higher = more signal
The following compounds are shown together with reported composite z-score values.
measured.parameter: composite z-score

>>> value_reported("O=C(CS)NCCCCCNC(=O)[C@H]1C[C@H]2C(=O)N[C@@H](Cc3ccccc3)C(=O)N2[C@H]1c1ccc(O)cc1")
0.27
>>> value_reported("Cc1ccc(S[C@]2(C(=O)NC(C)C)CC(=O)N(Cc3cc(C(F)(F)F)cc(C(F)(F)F)c3)[C@@H]2c2ccc(CO)cc2I)cc1")
0.0628
>>> value_reported("COCCOC(=O)N1C(=O)[C@@]2(c3cc(C#CCNC(N)=O)ccc31)[C@H](c1ccccc1OCCO)N1[C@H](c3ccccc3)[C@H](c3ccccc3)OC(=O)[C@H]1[C@@H]2C(=O)NC[C@H](O)c1ccccc1")
0.0288
>>> value_reported("COc1cc(Cc2cc3c(c(CCc4ccccc4)n2)[Si](C(C)C)(C(C)C)OC3)cc(OC)c1OC")
-0.106

====

Test: basal MM1S mitochondrial membrane potential changes, profiling panel, cell-based, JC-1 fluorescence, 24 h, 100 nL compound (AID 1170); note: test concentration not given here
Settings: higher = more signal
Lab note: compare z-score against -0.3. Equal or greater, write criterion met. Smaller, write criterion not met.

>>> qualitative_label("C[C@H]1NC(=O)[C@@H](C)NC(=O)[C@@]23C(=O)N[C@@H](Cc4ccccc4)C2[C@H](C)[C@@]2(C)O[C@H]2C3/C=C/C/C=C\\CNC1=O (some centres not stated)")
"criterion met"
>>> qualitative_label("C=CCc1cccc([C@H]2N[C@H](C(=O)O)CC[C@@H]2C)c1")
"criterion met"
>>> qualitative_label("[N-]=[N+]=NCc1ccccc1C[C@]1(C(N)=O)N=C(c2ccc(OCCCO)cc2)O[C@H]1c1ccccc1CN=[N+]=[N-]")
"criterion not met"
>>> qualitative_label("C=C(C)[C@@H]1CC=C(C(O)C2C=CC3C(=O)NC(=O)C3N2Nc2ccccn2)CC1 (some centres not stated)")
"criterion met"
>>> qualitative_label("CC(C)CN1C(=O)[C@@]2(Cc3ccccc31)c1ccccc1C(=O)N(C1CCCCC1)[C@H]2c1ccc(CO)cc1")
"criterion met"
>>> qualitative_label("[N-]=[N+]=NCc1ccccc1C[C@]1(C(=O)N2CCCCC2)N=C(c2ccc(OCCCO)cc2)O[C@H]1c1ccccc1CN=[N+]=[N-]")
"criterion not met"
>>> qualitative_label("Cc1ccc(S[C@]2(C(=O)NCCCN(C)C)CC(=O)N(C3CCCCC3)[C@@H]2c2ccc(CO)cc2I)cc1")
"criterion not met"
>>> qualitative_label("CO[C@H]1COC(=O)[C@H](CCSC)NC(=O)CC=C[C@@H](C)COC(=O)[C@@H](OCc2ccccc2)C=C[C@@H]1C")
"criterion met"
>>> qualitative_label("C=C(CCCC)/C(=C/C[C@H](OC(=O)c1ccncc1)c1cccc(OCCO)c1)c1cc(C(=O)OC)ccc1OC")
"criterion not met"
>>> qualitative_label("C[C@@H]1NC(=O)[C@H](Cc2ccccc2)NC(=O)[C@@]23C(=O)N[C@@H](Cc4ccccc4)C2[C@H](C)[C@@]2(C)O[C@H]2C3/C=C/C/C=C\\CNC1=O (some centres not stated)")
"criterion met"
>>> qualitative_label("C=CC(=O)O[C@@H](Cc1ccccc1)[C@H]1C2C=CCCC=C2CN1Cc1cccc(Cl)c1 (some centres not stated)")
"criterion met"
>>> qualitative_label("CCCC=C(CCC)[C@@H](NC(=O)c1ccccc1)c1ccccc1")
"criterion not met"
>>> qualitative_label("CCOC(=O)C1=C[C@@H](c2ccccc2)N(S(=O)(=O)c2ccc(C)cc2)[C@H]1c1ccc(F)cc1")
"criterion met"
>>> qualitative_label("C=CCN1C(=O)[C@@]2(Cc3ccccc3)N=C(c3ccc(OCCCO)cc3)O[C@H]2c2ccccc21")
"criterion not met"
>>> qualitative_label("COc1ccc([Si](C)(C)[C@@H]2[C@@H](CCO)O[C@]3(C(=O)N(Cc4ccc(NC(=O)[C@H](C)O)cc4)c4ccccc43)[C@H]2C)cc1")
"criterion not met"
>>> qualitative_label("C=CCN(C(=O)C1N(c2ccc(CCO)cc2)C(=O)C2C(C(=O)O)C3C=CC21O3)C(C)(C)C (configuration not stated)")
"criterion met"
>>> qualitative_label("COC(=O)[C@H]1[C@@H]2COc3ccccc3[C@H]2N[C@H]1C(=O)OC")
"criterion not met"
>>> qualitative_label("COC(=O)C(CC#Cc1ccc2c(c1)[C@]1(C(=O)N2)[C@H](C(=O)N2CCCCCCC2)[C@H]2C(=O)O[C@H](c3ccccc3)[C@H](c3ccccc3)N2[C@@H]1c1ccc(O)cc1)C(=O)OC")
"criterion not met"
>>> qualitative_label("O=C1OCC=C[C@H]2OC34C=CCN(Cc5ccccc5)C(=O)[C@H]3N(CCO)C(=O)[C@@H]4[C@@H]12 (some centres not stated)")
"criterion met"
>>> qualitative_label("CN(C)C(=O)[C@@]1(Cc2ccccc2N=[N+]=[N-])N=C(c2ccc(OCCCO)cc2)O[C@H]1c1ccccc1CN=[N+]=[N-]")
"criterion not met"
>>> qualitative_label("Cc1ccc(N2C(=O)c3ccccc3[C@@H](C(=O)NCC(F)(F)F)[C@@H]2c2ccc(CO)cc2)nc1")
"criterion met"
>>> qualitative_label("C[N+](C)(C)CCCCNC(=O)[C@@H]1C[C@@H]2C(=O)N3CCC[C@H]3C(=O)N2[C@@H]1c1cccc(OCCO)c1")
"criterion met"
>>> qualitative_label("CCC#CCN(Cc1ccccc1Br)[C@H](/C=C/c1ccccc1)[C@@H](O)Cc1ccccc1")
"criterion not met"
>>> qualitative_label("O=C1c2ccccc2[C@@]2(Cc3ccccc3N(CC(F)(F)F)C2=O)[C@H](c2ccc(CO)cc2)N1C1CCCCC1")
"criterion met"
>>> qualitative_label("C=CC[C@@]12N=C(c3ccc(OCCCO)cc3)O[C@@H]1c1ccccc1CN(Cc1ccccc1)C2=O")
"criterion not met"
>>> qualitative_label("C=C(COC)/C(=C/C[C@@H](OC(=O)c1ccncc1)c1ccc(OCCO)cc1)c1cc(C(=O)OC)ccc1OC")
"criterion met"
>>> qualitative_label("C=CC[C@]1(C(=O)NCC(O)CO)N=C(c2ccc(OCCCO)cc2)O[C@H]1c1ccccc1 (some centres not stated)")
"criterion met"

Ref: PubChem BioAssay
